biological target: panel of 60 human kinases (Homo sapiens, UniProt Q9UM73); construct: purchased Reaction Biology Corp; test: Radiolabeled ATP kinase assay, panel of 60 kinases (Table S5); type: biochemical; conditions: ALK; 0.1 μM; 10 μM ATP; read-out: % Enzyme Activity (relative to DSMO controls)
Sequence (Q9UM73 19-1620): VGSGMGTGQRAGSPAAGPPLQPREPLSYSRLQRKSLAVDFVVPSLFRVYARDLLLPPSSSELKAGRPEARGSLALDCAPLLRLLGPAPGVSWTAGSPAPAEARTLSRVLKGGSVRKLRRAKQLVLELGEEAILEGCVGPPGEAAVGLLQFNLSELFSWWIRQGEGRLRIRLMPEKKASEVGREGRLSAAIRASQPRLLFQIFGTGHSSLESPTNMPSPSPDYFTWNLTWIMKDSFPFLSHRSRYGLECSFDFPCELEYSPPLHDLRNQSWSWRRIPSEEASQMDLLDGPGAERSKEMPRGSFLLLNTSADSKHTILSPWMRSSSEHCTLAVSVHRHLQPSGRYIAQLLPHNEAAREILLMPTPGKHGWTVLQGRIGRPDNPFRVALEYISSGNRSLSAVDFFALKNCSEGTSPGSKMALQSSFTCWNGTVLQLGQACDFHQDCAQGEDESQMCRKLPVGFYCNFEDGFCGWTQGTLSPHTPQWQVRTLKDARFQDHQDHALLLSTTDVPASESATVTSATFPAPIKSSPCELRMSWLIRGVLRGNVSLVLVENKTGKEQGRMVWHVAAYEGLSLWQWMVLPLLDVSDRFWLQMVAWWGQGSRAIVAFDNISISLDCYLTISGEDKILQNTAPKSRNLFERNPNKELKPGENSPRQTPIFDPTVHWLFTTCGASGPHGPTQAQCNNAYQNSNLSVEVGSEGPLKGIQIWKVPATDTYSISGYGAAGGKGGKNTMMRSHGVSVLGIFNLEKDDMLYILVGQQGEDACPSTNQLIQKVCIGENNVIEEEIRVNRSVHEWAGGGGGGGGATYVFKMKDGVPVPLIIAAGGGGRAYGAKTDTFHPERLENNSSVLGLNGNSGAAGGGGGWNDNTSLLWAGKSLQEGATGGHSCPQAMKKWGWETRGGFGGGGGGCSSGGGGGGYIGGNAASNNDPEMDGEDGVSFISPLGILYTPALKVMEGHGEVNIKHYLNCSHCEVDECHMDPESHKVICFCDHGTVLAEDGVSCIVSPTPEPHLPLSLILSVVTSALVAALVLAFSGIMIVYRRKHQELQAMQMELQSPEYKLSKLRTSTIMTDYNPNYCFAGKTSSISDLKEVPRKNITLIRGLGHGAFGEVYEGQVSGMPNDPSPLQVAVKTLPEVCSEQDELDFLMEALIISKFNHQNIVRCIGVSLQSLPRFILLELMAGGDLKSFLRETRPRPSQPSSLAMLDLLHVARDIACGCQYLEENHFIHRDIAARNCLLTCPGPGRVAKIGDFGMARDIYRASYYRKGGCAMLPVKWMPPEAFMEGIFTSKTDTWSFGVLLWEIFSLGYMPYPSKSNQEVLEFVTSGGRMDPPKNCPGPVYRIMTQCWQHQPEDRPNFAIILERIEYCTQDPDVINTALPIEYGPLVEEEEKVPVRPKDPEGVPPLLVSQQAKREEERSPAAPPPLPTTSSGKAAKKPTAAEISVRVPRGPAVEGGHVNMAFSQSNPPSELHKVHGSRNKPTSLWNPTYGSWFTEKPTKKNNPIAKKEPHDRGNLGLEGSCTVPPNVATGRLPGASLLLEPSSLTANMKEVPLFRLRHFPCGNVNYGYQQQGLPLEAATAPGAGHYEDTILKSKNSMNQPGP
Cut-off 90% on remaining activity at 0.1 µM: below means Satisfied, at or above means Not satisfied.

Answered cases to consult:
CN1CCN(Cc2ccc(-c3cnc4[nH]cc(-c5ccc6c(c5)OCCO6)c4c3)cc2)CC1 = Satisfied
CN1CCN(Cc2ccc(-c3cnc4[nH]cc(-c5cnn(Cc6ccccc6)c5)c4c3)cc2)CC1 = Satisfied
CN1CCN(Cc2ccc(-c3cnc4[nH]cc(-c5ccccc5Cl)c4c3)cc2)CC1 = Satisfied
Cc1nn(C)c(C)c1-c1c[nH]c2ncc(-c3ccc(CN4CCN(C)CC4)cc3)cc12 = Satisfied
COc1ccccc1-c1c[nH]c2ncc(-c3ccc(CN4CCN(C)CC4)cc3)cc12 = Satisfied

q: Criterion: remaining activity at 0.1 µM strictly below 90%. Is it met by CN1CCN(Cc2ccc(-c3cnc4[nH]cc(-c5cccc(Cl)c5)c4c3)cc2)CC1 ?
a: Not satisfied

q: Criterion: remaining activity at 0.1 µM strictly below 90%. Is it met by CN1CCN(Cc2ccc(-c3cnc4[nH]cc(-c5ccncc5)c4c3)cc2)CC1 ?
a: Not satisfied

q: Criterion: remaining activity at 0.1 µM strictly below 90%. Is it met by CN1CCN(Cc2ccc(-c3cnc4[nH]cc(-c5ccc6[nH]ccc6c5)c4c3)cc2)CC1 [Compound 1, reference compound] ?
a: Satisfied

---

test system: HB9::GFP-SOD1^+/+ human motor neurons; assay: Rescue of CPA toxicity in human ESC-derived motor neurons, SOD1^+/+; type: cell-based; settings: WT motor neurons, 33 μM CPA
valueType: rescue of CPA-induced cell death (%)
Only the number, expressed in %, is required.

Observe how each entry below is paired with its result.
Cn1c2ccccc2c2c3c(c4c5ccccc5n(CCC#N)c4c21)CNC3=O = 45
O=C1Cc2c([nH]c3ccc(Br)cc23)-c2ccccc2N1 = 42
C[C@H](CCC(=O)NCCS(=O)(=O)O)[C@H]1CC[C@H]2[C@@H]3[C@@H](O)C[C@@H]4C[C@H](O)CC[C@]4(C)[C@H]3CC[C@]12C = 34

# next molecule below
q: GET /values?readout=rescue of CPA-induced cell death&item= COC(=O)[C@@]1(O)C[C@H]2O[C@]1(C)n1c3ccccc3c3c4c(c5c6ccccc6n2c5c31)C(=O)NC4 [Compound K-252a]
a: 56

---

target: MLK1/MAP3K9 (Homo sapiens); construct: purchased Reaction Biology Corp; assay: Radiolabeled ATP kinase assay (Reaction Biology Corp.), MLK1; assay type: biochemical; conditions: [Cmpd] 0.1 μM; 10 μM ATP; read-out: % Enzyme Activity Remaining (relative to DMSO controls), MLK1/MAP3K9, Data 2
Sequence (P80192 whole entry): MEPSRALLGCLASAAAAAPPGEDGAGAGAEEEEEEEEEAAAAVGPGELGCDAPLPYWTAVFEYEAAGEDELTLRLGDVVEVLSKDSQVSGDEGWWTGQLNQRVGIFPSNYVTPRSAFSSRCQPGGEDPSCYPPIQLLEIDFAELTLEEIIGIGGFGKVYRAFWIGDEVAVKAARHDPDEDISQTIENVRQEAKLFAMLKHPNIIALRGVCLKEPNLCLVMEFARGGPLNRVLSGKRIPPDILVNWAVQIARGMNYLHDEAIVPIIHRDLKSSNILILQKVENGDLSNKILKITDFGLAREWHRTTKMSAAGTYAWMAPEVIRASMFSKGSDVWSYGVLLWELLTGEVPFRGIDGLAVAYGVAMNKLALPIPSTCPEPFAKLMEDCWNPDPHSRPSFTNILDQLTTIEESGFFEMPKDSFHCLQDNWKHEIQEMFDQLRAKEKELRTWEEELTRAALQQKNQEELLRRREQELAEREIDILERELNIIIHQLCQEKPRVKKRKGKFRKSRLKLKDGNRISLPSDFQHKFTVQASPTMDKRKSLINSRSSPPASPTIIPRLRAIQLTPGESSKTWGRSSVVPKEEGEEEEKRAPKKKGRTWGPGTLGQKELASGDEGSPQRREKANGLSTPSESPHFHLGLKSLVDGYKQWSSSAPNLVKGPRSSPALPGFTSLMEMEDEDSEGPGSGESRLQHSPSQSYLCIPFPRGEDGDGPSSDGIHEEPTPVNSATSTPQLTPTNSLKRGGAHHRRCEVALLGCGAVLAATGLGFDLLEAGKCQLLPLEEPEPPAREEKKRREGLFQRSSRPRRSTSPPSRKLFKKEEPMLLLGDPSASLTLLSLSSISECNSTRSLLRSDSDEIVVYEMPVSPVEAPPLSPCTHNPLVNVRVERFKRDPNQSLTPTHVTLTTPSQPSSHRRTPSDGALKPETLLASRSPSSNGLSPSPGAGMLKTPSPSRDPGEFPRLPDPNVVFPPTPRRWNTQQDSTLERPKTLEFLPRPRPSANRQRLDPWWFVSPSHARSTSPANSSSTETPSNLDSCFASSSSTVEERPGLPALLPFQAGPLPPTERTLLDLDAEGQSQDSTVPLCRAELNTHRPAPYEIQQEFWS
Cut-off 80% on remaining activity at 0.1 µM: below means Condition met, at or above means Condition not met.

Answered cases to consult:
CC(C)Oc1ccc(-c2c[nH]c3ncc(-c4ccc(CN5CCN(C)CC5)cc4)cc23)cc1 = Condition not met
CN1CCN(Cc2ccc(-c3cnc4[nH]ccc4c3)cc2)CC1 = Condition not met
CN1CCN(Cc2ccc(-c3cnc4[nH]cc(-c5csc6ccccc56)c4c3)cc2)CC1 = Condition met
COc1cc(-c2c[nH]c3ncc(-c4ccc(CN5CCN(C)CC5)cc4)cc23)cc(OC)c1OC = Condition met

q: Criterion: remaining activity at 0.1 µM strictly below 80%. Is it met by CN1CCN(Cc2ccc(-c3cnc4[nH]cc(-c5ccc(OC(F)(F)F)cc5)c4c3)cc2)CC1 ?
a: Condition not met

q: Criterion: remaining activity at 0.1 µM strictly below 80%. Is it met by COc1ccccc1-c1c[nH]c2ncc(-c3ccc(CN4CCN(C)CC4)cc3)cc12 ?
a: Condition met

q: Criterion: remaining activity at 0.1 µM strictly below 80%. Is it met by CN1CCN(Cc2ccc(-c3cnc4[nH]cc(-c5cccc(C(F)(F)F)c5)c4c3)cc2)CC1 ?
a: Condition not met

q: Criterion: remaining activity at 0.1 µM strictly below 80%. Is it met by CN1CCN(Cc2ccc(-c3cnc4[nH]cc(-c5ccccc5Cl)c4c3)cc2)CC1 ?
a: Condition met

q: Criterion: remaining activity at 0.1 µM strictly below 80%. Is it met by CN1CCN(Cc2ccc(-c3cnc4[nH]cc(-c5cccc6c5oc5ccccc56)c4c3)cc2)CC1 ?
a: Condition not met
